Molecular target: Ba/F3-FGFR1-transfected cells (Homo sapiens)
Construct: BAF3-FGFR1 (MIN IL3) pIC50; other: minus IL3
Sequence (P11362 whole entry, change not shown): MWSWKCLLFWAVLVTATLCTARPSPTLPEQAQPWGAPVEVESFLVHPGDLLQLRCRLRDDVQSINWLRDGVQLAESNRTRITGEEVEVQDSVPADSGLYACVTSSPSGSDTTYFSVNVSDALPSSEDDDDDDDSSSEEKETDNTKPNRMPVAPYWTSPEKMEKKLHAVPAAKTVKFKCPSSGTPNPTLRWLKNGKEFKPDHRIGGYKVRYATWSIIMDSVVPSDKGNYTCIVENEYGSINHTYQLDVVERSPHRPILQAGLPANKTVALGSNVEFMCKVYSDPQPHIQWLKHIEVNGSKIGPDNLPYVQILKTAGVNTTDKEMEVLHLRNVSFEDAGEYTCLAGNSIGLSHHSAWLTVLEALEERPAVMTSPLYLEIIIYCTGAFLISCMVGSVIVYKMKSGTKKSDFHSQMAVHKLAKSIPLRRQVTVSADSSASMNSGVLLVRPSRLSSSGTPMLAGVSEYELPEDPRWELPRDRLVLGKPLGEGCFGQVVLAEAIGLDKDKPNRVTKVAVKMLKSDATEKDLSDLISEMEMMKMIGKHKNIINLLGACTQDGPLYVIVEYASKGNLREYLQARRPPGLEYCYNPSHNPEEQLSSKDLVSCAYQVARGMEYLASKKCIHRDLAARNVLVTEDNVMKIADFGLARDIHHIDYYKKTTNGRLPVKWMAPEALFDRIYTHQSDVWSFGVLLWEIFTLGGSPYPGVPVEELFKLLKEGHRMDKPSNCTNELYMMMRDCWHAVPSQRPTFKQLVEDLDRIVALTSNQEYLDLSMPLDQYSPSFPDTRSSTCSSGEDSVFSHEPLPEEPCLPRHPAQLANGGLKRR
Experiment: Ba/F3-FGFR1 (minus IL3) cellular proliferation assay, Alamar Blue
Type: cell-based
Counter-ions that a name gives are not always drawn.
Kindly supply the reported BAF3-FGFR1 (MIN IL3) pIC50 values for the records listed here.

Query: BAF3-FGFR1 (MIN IL3) pIC50; subject: COc1cc(OC)cc(N(Cc2ncc[nH]2)c2ccc3ncc(-c4cnn(C)c4)nc3n2)c1 [24-fumarate salt]
8.46

Query: BAF3-FGFR1 (MIN IL3) pIC50; subject: CNCCN(c1ccc2ncc(-c3cnn(C)c3)nc2n1)c1cc(OC)cc(OC)c1F [Compound 39]
7.97

Query: BAF3-FGFR1 (MIN IL3) pIC50; subject: COCC(O)CN(c1ccc2ncc(-c3cnn(C)c3)nc2n1)c1cc(OC)cc(OC)c1F (single isomer, unassigned) [Compound 59]
7.60

Query: BAF3-FGFR1 (MIN IL3) pIC50; subject: COc1cc(OC)c(Cl)c(N(Cc2ncc[nH]2)c2ccc3ncc(-c4cnn(C)c4)nc3n2)c1Cl [Compound 98]
7.72

Query: BAF3-FGFR1 (MIN IL3) pIC50; subject: CCn1/c(=N/c2c(F)c(OC)cc(OC)c2F)ccc2ncc(-c3cnn(C)c3)nc21 [Compound 257]
8.58

Query: BAF3-FGFR1 (MIN IL3) pIC50; subject: COCC(O)CN(c1ccc2ncc(-c3cnn(C)c3)nc2n1)c1cc(OC)cc(OC)c1F (single isomer, unassigned) [Compound 58]
7.51

Query: BAF3-FGFR1 (MIN IL3) pIC50; subject: COc1cc(OC)cc(N(CC(C)(C)O)c2ccc3ncc(-c4cnn(C)c4)nc3n2)c1 [Compound 276]
6.28

Query: BAF3-FGFR1 (MIN IL3) pIC50; subject: COc1cc(OC)c(F)c(N(CCO)c2ccc3ncc(-c4cnn(C)c4)nc3n2)c1F [Compound 20]
8.35

Query: BAF3-FGFR1 (MIN IL3) pIC50; subject: CNCCN(c1ccc2ncc(-c3cn[nH]c3)nc2n1)c1c(F)c(OC)cc(OC)c1F [Compound 106]
7.86

Query: BAF3-FGFR1 (MIN IL3) pIC50; subject: COc1cc(OC)c(F)c(N(CC2CCC(=O)N2)c2ccc3ncc(-c4cnn(C5CNC5)c4)nc3n2)c1 (stereo not drawn) [Compound 299]
6.05

Query: BAF3-FGFR1 (MIN IL3) pIC50; subject: COc1cc(OC)cc(N(CCO)c2ccc3ncc(-c4cnn(C)c4)nc3n2)c1 [Compound 21]
7.3

Query: BAF3-FGFR1 (MIN IL3) pIC50; subject: COc1cc(/N=c2\ccc3ncc(-c4cnn(C)c4)nc3n2Cc2cn[nH]c2)c(F)c(OC)c1 [Compound 155]
8.13
